Reference source for all entries: ChEMBL document CHEMBL1126589

Tested on: Rattus norvegicus
METHOD NOTES: Integrated area under the blood concentration vs time curve for the period 0-24 hr postdose of 2.5 mg/kg (normalized to a 1 mg/kg dose) in rat
Type: ADME, organism-based
Parameters: dose 2.5 mg/kg, time < 24 hr
CONDITION: in vivo
OBSERVED PROPERTY: AUC
The reply should read as a number followed by its unit.

Q: What value of AUC on Rattus norvegicus does CCC(CC)CNC(=O)c1ccc2c(c1)c(Cc1ccc(C(=O)NS(=O)(=O)c3ccccc3C)cc1OC)cn2CC have?
Result: 4070 ng/h/mL

###

SYSTEM: UniProt:Q2NNR5
Sequence (Q2NNR5 whole entry): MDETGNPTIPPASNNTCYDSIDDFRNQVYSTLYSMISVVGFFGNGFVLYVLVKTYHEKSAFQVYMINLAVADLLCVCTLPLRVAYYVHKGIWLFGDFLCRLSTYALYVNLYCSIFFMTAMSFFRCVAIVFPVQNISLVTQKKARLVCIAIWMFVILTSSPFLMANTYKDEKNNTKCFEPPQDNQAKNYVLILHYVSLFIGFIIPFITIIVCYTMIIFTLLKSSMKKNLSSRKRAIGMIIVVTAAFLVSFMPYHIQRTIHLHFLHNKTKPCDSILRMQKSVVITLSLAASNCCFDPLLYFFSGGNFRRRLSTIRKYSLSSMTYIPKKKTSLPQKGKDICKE
METHOD NOTES: Binding affinity to the leukotriene receptor (LTD4) from guinea pig lung parenchymal membranes assayed using [3H]LTD4 as radioligand
Type: tissue-based, Lung parenchyma
Provide the recorded Ki for the entries that follow.
Answers are plain numbers, in nM.

Example cases with answers are listed next.
{"columns": ["COMPOUND", "READING"],
 "data": [
  ["CCC(CC)CNC(=O)c1ccc2c(c1)c(Cc1ccc(C(=O)NS(=O)(=O)c3ccccc3C)cc1OC)cn2Cc1ccccc1", 1.26],
  ["CCC(C)CNC(=O)c1ccc2c(c1)c(Cc1ccc(C(=O)NS(=O)(=O)c3ccccc3C)cc1OC)cn2C (centres undefined)", 5.01],
  ["C=CCn1cc(Cc2ccc(C(=O)NS(=O)(=O)c3ccccc3C)cc2OC)c2cc(C(=O)NCC3CCCC3)ccc21", 0.398]
]}

Turning now to a further compound:
Q: // returns reported Ki for input CCCC(C)CNC(=O)c1ccc2c(c1)c(Cc1ccc(C(=O)NS(=O)(=O)c3ccccc3C)cc1OC)cn2C (centres undefined)
Result: 6.31

###

METHOD NOTES: Bioavailability in rat
Format: ADME, organism-based
CONDITION: in vivo
OBSERVED PROPERTY: bioavailability
Give the number first and the unit second.

Q: What value of measured bioavailability is listed for CCC(CC)CNC(=O)c1ccc2c(c1)c(Cc1ccc(C(=O)NS(=O)(=O)c3ccccc3C)cc1OC)cn2CC ?
Result: 28.1%

###

METHOD NOTES: ED50 ratio of LTD4 peroral administration / LTD4 intravenous administration
Assay type: functional
Label rule met for high-side Ratio (at or above 30) and rule not met for low-side Ratio (below it).

Examples with answers:
{"columns": ["MOLECULE", "GROUP"],
 "data": [
  ["CCC(CC)CNC(=O)c1ccc2c(c1)c(Cc1ccc(C(=O)NS(=O)(=O)c3ccccc3C)cc1OC)cn2C(C)C", "rule met"],
  ["CCC(CC)CNC(=O)c1ccc2c(c1)c(Cc1ccc(C(=O)NS(=O)(=O)c3ccccc3C)cc1OC)cn2CC", "rule met"],
  ["CCCn1cc(Cc2ccc(C(=O)NS(=O)(=O)c3ccccc3C)cc2OC)c2cc(C(=O)NCC(C)C)ccc21", "rule met"]
]}

Q: # check: Ratio of COc1cc(C(=O)NS(=O)(=O)c2ccccc2C)ccc1Cc1cn(C)c2ccc(C(=O)NCC3CCCC3)cc12 is greater than or equal to 30
Result: rule not met

Q: Hi, just wondering whether CCC(CC)CNC(=O)c1ccc2c(c1)c(Cc1ccc(C(=O)NS(=O)(=O)c3ccccc3Br)cc1OC)cn2C shows Ratio of 30 or higher.
Result: rule not met

Q: Is Ratio for COc1cc(C(=O)NS(=O)(=O)c2ccccc2C)ccc1Cc1cn(C)c2ccc(NC(=O)CC3CCCC3)cc12 at or above 30?
Result: rule not met

Q: Is reported Ratio greater than or equal to 30 here: CCCn1cc(Cc2ccc(C(=O)NS(=O)(=O)c3ccccc3C)cc2OC)c2cc(C(=O)NCC(CC)CC)ccc21
Result: rule met

Q: Entry CCCn1cc(Cc2ccc(C(=O)NS(=O)(=O)c3ccccc3C)cc2OC)c2cc(C(=O)NCC3CCCC3)ccc21 : is its Ratio no less than 30?
Result: rule met

Q: Does Ratio meet or surpass 30 for CCC(CC)CNC(=O)c1ccc2c(c1)c(Cc1ccc(C(=O)NS(=O)(=O)c3ccccc3C)cc1OC)cn2C ?
Result: rule not met

Q: Given CCC(C)CNC(=O)c1ccc2c(c1)c(Cc1ccc(C(=O)NS(=O)(=O)c3ccccc3C)cc1OC)cn2C (configuration not stated) , state whether its Ratio is at least 30.
Result: rule not met

Q: API: above_or_equal(metric=Ratio, cutoff=30) for item CCCCC(CC)CNC(=O)c1ccc2c(c1)c(Cc1ccc(C(=O)NS(=O)(=O)c3ccccc3C)cc1OC)cn2C (configuration not stated)
Result: rule not met
